Every entry's value here was drawn from PubChem BioAssay AID540271.

System: S. cerevisiae expressing PfHSP40, growth rescue, plate reader
Test: Yeast growth rescue from Plasmodium falciparum HSP40 toxicity, dose response confirmatory, plate reader (AID 540271);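 also: yeast growth read after three days of incubation at 30 °C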
The source made the active and inactive calls. No rule for the calls is given here.
Outcomes: true (1) = active, false (0) = inactive

compound: O=C(CSc1ccc(-c2ccccn2)nn1)NCc1ccccc1
class-name: true (1)
--
compound: COc1cccc(/C=N/Nc2ncnc(Cl)c2N)c1O
class-name: true (1)
--
compound: O=c1[nH]cc(F)c(=O)[nH]1
class-name: true (1)
--
compound: Cc1cc(Cl)ccc1C(=O)C1CCCN(C(=O)c2cncs2)C1 (configuration not stated)
class-name: true (1)
--
compound: O=c1cnn([C@@H]2O[C@H](CO)[C@@H](O)[C@H]2O)c(=O)[nH]1
class-name: false (0)
--
compound: COc1cc(C(=O)ON=C2C3CC4CC(C3)CC2C4)cc(OC)c1OC
class-name: true (1)
--
compound: O=Nc1c(O)n(Cc2ccc(Cl)c(Cl)c2)c2ccccc12
class-name: true (1)
--
compound: Clc1cccc(N/N=C(\Cc2nc3ccccc3[nH]2)c2ccccc2)c1
class-name: true (1)
--
compound: Cc1ccc(-c2c3c(nc4sc(C(N)=O)c(N)c24)CCCC3)o1
class-name: true (1)
--
compound: COc1ccc(-n2nc(C#N)c(Cl)cc2=O)cc1
class-name: true (1)
--
compound: Cc1ccccc1NC(=O)CSc1ccc(-c2ccccn2)nn1
class-name: true (1)
--
compound: O=[N+]([O-])c1ccc(S(=O)Cc2ccccc2)c([N+](=O)[O-])c1 (configuration not stated)
class-name: true (1)
--
compound: O=[N+]([O-])c1cc(C(F)(F)F)ccc1NCCc1c[nH]c2ccc(O)cc12
class-name: true (1)
--
compound: O=[N+]([O-])c1cc(Cl)cc(/C=N/NC(=S)Nc2ccc(S(=O)(=O)N3CCOCC3)cc2)c1O
class-name: true (1)
--
compound: FC(F)(F)c1nc(SCc2ccc(Cl)cc2Cl)n[nH]1
class-name: true (1)
--
compound: CN(C)c1nc(SCc2ccc(Cl)cc2)nc2c1CCCC2
class-name: true (1)
--
compound: CC(C)=CCc1c(O)ccc(C(=O)Cc2ccccc2)c1O
class-name: true (1)
--
compound: O=C1c2cccc(Cl)c2C(=O)c2c1cccc2N1CCCC1
class-name: true (1)
--
compound: CC(C)N1CCN(c2ccc(OCC3COC(Cn4cncn4)(c4ccc(Cl)cc4Cl)O3)cc2)CC1 (configuration not stated)
class-name: true (1)
--
compound: Oc1c(C(Nc2cccc(C(F)(F)F)c2)c2ccncc2)ccc2cccnc12 (configuration not stated)
class-name: true (1)
--
compound: COc1ccc2c(c1)OC[C@H]1[C@H]2N2C(=O)c3cc(OC)ccc3NC(=O)[C@@]2(C)[C@H]1c1ccccc1
class-name: true (1)
--
compound: CC(C)(C)c1ccc(C(=O)NC(=S)NNC(=O)c2cccs2)cc1
class-name: true (1)
